SYSTEM_TESTED: human IL-21R expressed on cells (human, UniProt Q9HBE5 20-538)
Sequence (Q9HBE5 20-538 limits assumed): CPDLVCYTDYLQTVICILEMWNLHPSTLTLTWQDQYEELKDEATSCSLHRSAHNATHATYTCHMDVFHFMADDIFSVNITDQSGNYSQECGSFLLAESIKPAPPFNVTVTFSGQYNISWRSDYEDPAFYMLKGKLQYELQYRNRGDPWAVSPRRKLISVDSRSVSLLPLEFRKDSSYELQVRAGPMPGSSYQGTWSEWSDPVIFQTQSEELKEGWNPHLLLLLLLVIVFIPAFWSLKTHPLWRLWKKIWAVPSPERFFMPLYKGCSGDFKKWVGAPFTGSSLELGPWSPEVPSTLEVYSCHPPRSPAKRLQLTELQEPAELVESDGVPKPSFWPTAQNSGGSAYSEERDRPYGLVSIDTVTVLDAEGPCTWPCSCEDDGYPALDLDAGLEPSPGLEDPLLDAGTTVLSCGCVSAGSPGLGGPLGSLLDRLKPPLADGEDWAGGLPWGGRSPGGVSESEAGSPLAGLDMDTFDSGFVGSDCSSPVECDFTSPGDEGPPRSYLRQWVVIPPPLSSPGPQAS
PROCEDURE_DETAILS: cell-based or functional assay
As shown below, each of these binders has a reported Human IL-21R-BaF3 Proliferation IC50 value.
// units = nM; emit number, no label

1. AbI (antibody, human IgG1, V domains shown, Full-length human IgG1 / human lambda, transient, conditioned medium; Framework limits derived; also called VHP/VL24) VH: QVQLQESGPGLVKPSETLSLTCAVSGYSISSGYYWGWIRQPPGKGLEWIGSISHTGNTYYNPPLKSRVTISVDTSKNQFSLKLSSVTAADTAVYYCARGGGISRPEYWGQGTLVTVSS VL: SSELTQDPAVSVALGQTVRITCQGDSLRTYYASWYQQKPGQAPVLVIYGKHKRPSGIPDRFSGSSSGNTASLTITGAQAEDEADYYCIARSNKGNPHVLFGGGTQLTVL = 1

Name the recorded Human IL-21R-BaF3 Proliferation IC50 for AbC (antibody, human IgG1, V domains shown, Full-length human IgG1 / human lambda, transient, conditioned medium; Framework limits derived; also called VHP/VL11) VH: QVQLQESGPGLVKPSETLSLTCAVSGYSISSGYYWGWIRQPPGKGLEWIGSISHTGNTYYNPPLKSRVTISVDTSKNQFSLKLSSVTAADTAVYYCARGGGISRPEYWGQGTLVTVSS VL: SSELTQDPAVSVALGQTVRITCQGDSLRTYYASWYQQKPGQAPVLVIYGKHKRPSGIPDRFSGSSSGNTASLTITGAQAEDEADYYCSSRSRHGNPHVLFGGGTQLTVL .
0.82
